Tgt: Jak2 (UniProt O60674)
Sequence (O60674 whole entry, looked up): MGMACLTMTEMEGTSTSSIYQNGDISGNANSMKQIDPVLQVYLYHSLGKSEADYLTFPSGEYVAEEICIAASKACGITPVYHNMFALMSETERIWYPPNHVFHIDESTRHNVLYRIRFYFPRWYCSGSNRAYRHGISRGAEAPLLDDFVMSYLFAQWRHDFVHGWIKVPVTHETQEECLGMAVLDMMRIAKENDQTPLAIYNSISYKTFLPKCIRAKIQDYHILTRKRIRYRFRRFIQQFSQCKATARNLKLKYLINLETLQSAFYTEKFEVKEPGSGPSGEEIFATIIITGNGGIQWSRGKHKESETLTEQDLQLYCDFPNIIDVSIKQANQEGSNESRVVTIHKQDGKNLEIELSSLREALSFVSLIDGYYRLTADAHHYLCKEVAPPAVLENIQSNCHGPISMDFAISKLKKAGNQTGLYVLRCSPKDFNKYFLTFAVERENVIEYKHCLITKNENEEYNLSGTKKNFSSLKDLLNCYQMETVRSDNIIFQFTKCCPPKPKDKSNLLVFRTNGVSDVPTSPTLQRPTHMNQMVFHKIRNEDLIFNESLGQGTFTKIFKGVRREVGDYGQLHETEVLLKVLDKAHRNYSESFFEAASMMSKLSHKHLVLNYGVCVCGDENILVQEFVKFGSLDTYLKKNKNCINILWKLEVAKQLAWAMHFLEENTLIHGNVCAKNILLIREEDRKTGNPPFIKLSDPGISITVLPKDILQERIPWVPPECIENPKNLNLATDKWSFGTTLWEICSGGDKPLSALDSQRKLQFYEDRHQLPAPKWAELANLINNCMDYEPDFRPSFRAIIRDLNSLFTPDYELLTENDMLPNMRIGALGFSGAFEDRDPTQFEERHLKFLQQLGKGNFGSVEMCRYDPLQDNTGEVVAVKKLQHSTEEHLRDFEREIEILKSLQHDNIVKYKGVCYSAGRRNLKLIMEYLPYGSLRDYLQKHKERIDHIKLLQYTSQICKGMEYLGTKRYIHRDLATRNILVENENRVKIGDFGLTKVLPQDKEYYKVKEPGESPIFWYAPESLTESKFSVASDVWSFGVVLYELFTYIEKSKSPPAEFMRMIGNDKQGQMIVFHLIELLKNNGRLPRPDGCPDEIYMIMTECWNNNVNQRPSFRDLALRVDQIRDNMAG
Assay Info: phosphorylation enrichment, bacterial display (enrichment ratio); higher = better substrate or ligand; peptides without Tyr show the background;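 also: 11-residue human phosphosite peptides and single-mutation variants displayed on the E. coli surface, counted by deep sequencing, each peptide's frequency after selection divided by its frequency in the unselected input library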;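 also: frequency after pTyr selection over input frequency; kinase dosed for 20-30% of maximal phosphorylation in three min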
Where phosphorylation enrichment equals or exceeds 0.7, the correct label is Satisfied; where it does not, the label is Not satisfied.

Input Sequence | Group
RRIHSYRGFLW [VHL_Y112_H115Y_YF] | Not satisfied
IHFAIYFLKFS [ARMC9_Y107_L108F_YF] | Not satisfied
DFTSRYLSASD [PKHD1_Y828_N830S] | Not satisfied
TVLEPYADPFF [ZC3H18_Y367_YF] | Satisfied
GLCSYYETSKM [MAGED2_Y449_R446C] | Satisfied
QQLDEYQKLLD [LMNA_Y359_E361K] | Satisfied
GREEFYVHFVG [KAT8_Y90_YF] | Satisfied
PSDLLYIPDIQ [ITGA2B_Y845_L847P] | Satisfied
ATHSGYRLNDF [CLDN14_Y233_YF] | Not satisfied
AGTILYHAHLG [ASS1_Y291_D296G] | Satisfied
SLDLSYYTTSS [EMD_Y181_P183T] | Satisfied
HSGIYYKPESL [L2HGDH_Y103] | Satisfied
KIFPEYLSNWT [AIFM1_Y347_L344F] | Satisfied
RLSELYLRRNR [CFAP410_Y68] | Satisfied
VLNHAYENLTR [SYNE2_Y3255_D3253H] | Not satisfied
PYVYYYSYLLK [PTEN_Y178_R173P] | Satisfied
GFGGGYGGVLT [KRT19_Y65_A60G_YF] | Not satisfied
KHASTYREAAT [DEAF1_Y483] | Not satisfied
SPYAVYLFFTF [RPGRIP1_Y826_R827L] | Satisfied
LFHENYNAGTY [CFI_Y421_I416L] | Satisfied
CEETFYTMKVN [MASP2_Y401] | Satisfied
FPDFVYKCIKA [DPYSL2_Y479_R481C] | Satisfied
RSGIFYKPESL [L2HGDH_Y103_H98R_YF] | Not satisfied
KNKNRYKNVLP [PTPN11_Y279_I282V] | Satisfied
GGYTCCCDGKK [PROS1_Y266_Y266C] | Satisfied
WISNRYLDFSS [PRPH2_Y184] | Satisfied
ISKKIYDTIHD [CTNNA3_Y614] | Not satisfied
AGRTGYDNREI [BCL2_Y9] | Satisfied
AFGEVYEGQVS [ALK_Y1131] | Satisfied
EQKKFYNATKK [SCN5A_Y1495_M1498T_YF] | Not satisfied
VHSGTYQVMVR [MYBPC3_Y1043_T1046M] | Not satisfied
SSAKTYSRMRL [NBEAL2_Y1835_E1833K] | Not satisfied
RVFIKYLPEWT [PSEN1_Y240_L235R] | Satisfied
GKTQQYDCKWY [BCR_Y751] | Satisfied
HMRLRYLAAEE [CEP120_Y884_Q879H] | Satisfied
VPHECYAKVFD [ALB_Y394_D389V] | Satisfied
PFGQWYESHFA [RPS8_Y113_R110G_YF] | Satisfied
GDGRFYMMEAI [PGM1_Y66_K68M] | Satisfied
TLNTNYHLPPS [MT-ATP8_Y33_M28T] | Not satisfied
GTFEDYVEGLR [MYL6_Y89_YF] | Satisfied
LPHVIYCRLWR [SMAD2_Y128] | Satisfied
TLNFCYQQVKS [PTK2_Y148_F147C] | Satisfied
RVFRDYVLKSA [HTATIP2_Y111_D108Y_YF] | Satisfied
SNNYIYTTLGV [FAM83B_Y639_K640T] | Satisfied
IDPFIYTPFGS [CYP3A4_Y432_YF] | Satisfied
IRTIDYRFTVC [IDS_Y497_W502C_YF] | Satisfied
PVFQVYPLLNC [GATA1_Y78] | Satisfied
GIVTGYLVLKE [DNMT3B_Y588_A585V] | Satisfied
FTNELYMMMRD [FGFR1_Y730_C725Y_YF] | Satisfied
DYLEKYYKFGS [NNMT_Y24] | Satisfied
QEMMEYRRQIQ [DES_Y324_H326R] | Satisfied
LNERHYGALIG [BPGM_Y92] | Not satisfied
ELAINYQEQAS [SLC9A9_Y591] | Satisfied
YETDYYRKGGK [INSR_Y1190] | Satisfied

###

Tgt: Fes (UniProt P07332)
Sequence (P07332 whole entry, looked up): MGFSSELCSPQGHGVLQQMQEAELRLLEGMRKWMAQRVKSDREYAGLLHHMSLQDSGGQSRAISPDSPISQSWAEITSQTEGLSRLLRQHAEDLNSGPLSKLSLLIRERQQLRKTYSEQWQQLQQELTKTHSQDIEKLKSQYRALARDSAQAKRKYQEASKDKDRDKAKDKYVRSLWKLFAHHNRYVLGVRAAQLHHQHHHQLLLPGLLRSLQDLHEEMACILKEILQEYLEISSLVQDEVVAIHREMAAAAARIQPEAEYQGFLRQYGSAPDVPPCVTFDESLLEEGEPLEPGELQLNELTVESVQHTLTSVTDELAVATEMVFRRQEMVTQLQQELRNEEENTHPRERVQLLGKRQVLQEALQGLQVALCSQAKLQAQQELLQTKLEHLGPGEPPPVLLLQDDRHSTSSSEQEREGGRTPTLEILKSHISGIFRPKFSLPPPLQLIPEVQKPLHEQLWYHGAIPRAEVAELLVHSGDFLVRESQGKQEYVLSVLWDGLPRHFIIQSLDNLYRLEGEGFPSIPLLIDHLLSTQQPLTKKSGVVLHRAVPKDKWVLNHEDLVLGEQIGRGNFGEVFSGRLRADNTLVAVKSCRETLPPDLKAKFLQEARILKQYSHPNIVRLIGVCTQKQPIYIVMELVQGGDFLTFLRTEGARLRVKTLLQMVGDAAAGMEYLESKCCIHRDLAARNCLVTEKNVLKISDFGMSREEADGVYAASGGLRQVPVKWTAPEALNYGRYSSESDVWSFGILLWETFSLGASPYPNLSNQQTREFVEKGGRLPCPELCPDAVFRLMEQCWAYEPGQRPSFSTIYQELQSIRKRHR
Assay Info: phosphorylation enrichment, bacterial display (enrichment ratio); higher = better substrate or ligand; peptides without Tyr show the background
Where phosphorylation enrichment equals or exceeds 1, the correct label is TRUE; where it does not, the label is FALSE.

Input Sequence | Group
SLAARYYNWVS [FLT4_Y1230] | TRUE
STEAIYRRFSK [SH3PXD2B_Y42_YF] | FALSE
SCRENYSYSEE [LEMD3_Y258_D260Y] | TRUE
VLAHKYHGGGG [HBB_Y146_A141V] | FALSE
IDDLEYLHSQG [STK11_Y166_G163D] | TRUE
ILGRFYERGSI [PAX5_Y73_T75R_YF] | FALSE
CTTIHYNFMSN [TP53_Y234_C238S_YF] | TRUE

###

Tgt: FGFR1 (UniProt P11362)
Sequence (P11362 whole entry, looked up): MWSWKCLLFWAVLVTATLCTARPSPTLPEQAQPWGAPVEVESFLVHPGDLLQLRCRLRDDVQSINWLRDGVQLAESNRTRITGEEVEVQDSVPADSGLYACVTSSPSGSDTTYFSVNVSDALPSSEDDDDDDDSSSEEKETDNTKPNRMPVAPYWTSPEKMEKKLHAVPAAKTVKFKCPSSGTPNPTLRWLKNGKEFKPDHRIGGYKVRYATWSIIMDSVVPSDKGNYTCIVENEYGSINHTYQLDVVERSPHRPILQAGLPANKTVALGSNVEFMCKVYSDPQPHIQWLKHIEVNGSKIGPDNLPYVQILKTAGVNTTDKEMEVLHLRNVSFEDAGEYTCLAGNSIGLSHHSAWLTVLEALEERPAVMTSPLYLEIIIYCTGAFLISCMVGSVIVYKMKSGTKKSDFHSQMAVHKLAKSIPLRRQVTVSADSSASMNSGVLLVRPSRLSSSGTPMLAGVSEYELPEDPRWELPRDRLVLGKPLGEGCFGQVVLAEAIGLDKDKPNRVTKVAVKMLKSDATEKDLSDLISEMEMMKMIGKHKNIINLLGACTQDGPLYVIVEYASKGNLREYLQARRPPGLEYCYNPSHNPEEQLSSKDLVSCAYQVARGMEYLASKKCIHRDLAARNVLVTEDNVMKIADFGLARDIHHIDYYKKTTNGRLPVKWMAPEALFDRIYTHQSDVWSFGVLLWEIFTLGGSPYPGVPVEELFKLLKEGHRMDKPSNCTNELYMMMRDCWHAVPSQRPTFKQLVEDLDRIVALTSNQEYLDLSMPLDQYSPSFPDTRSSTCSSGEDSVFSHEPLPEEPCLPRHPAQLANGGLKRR
Assay Info: phosphorylation enrichment, bacterial display (enrichment ratio); higher = better substrate or ligand; peptides without Tyr show the background
# phosphorylation enrichment annotations

Input Sequence | phosphorylation enrichment
GDGRFYMMEAI [PGM1_Y66_K68M] | 0.511
VFLARYGPAWR [CYP2D6_Y124] | 0.468
RLSVDYGKKSK [TUBA3E_Y161_S162G] | 0.534
ADLAKYICENR [ALB_Y287_Q292R] | 0.469
NHRNQYQALKT [CLSPN_Y887_P892T] | 0.503
LDYNEYFRNLN [HPRT1_Y198_D201N] | 0.596
PICEGYALPHA [ACTC1_Y171_Y168C] | 0.682
GIVEDYRPRFY [ACVRL1_Y421_P424R] | 0.409
GVRYTYTIDGS [DCX_Y105_I104T] | 0.521
DPYHVYIKNRV [KCNE3_Y95] | 0.407
FVSIVYNDFGE [TSC2_Y1650_S1653F] | 0.561
AATTAYSKPKR [MAP3K7_Y405] | 0.337
TKDTFYQQPMF [GBA_Y451_K452Q] | 0.605
EPYEVYRIVPE [IRF8_Y110_K108E] | 4.53

###

Tgt: MERTK (UniProt Q12866)
Sequence (Q12866 whole entry, looked up): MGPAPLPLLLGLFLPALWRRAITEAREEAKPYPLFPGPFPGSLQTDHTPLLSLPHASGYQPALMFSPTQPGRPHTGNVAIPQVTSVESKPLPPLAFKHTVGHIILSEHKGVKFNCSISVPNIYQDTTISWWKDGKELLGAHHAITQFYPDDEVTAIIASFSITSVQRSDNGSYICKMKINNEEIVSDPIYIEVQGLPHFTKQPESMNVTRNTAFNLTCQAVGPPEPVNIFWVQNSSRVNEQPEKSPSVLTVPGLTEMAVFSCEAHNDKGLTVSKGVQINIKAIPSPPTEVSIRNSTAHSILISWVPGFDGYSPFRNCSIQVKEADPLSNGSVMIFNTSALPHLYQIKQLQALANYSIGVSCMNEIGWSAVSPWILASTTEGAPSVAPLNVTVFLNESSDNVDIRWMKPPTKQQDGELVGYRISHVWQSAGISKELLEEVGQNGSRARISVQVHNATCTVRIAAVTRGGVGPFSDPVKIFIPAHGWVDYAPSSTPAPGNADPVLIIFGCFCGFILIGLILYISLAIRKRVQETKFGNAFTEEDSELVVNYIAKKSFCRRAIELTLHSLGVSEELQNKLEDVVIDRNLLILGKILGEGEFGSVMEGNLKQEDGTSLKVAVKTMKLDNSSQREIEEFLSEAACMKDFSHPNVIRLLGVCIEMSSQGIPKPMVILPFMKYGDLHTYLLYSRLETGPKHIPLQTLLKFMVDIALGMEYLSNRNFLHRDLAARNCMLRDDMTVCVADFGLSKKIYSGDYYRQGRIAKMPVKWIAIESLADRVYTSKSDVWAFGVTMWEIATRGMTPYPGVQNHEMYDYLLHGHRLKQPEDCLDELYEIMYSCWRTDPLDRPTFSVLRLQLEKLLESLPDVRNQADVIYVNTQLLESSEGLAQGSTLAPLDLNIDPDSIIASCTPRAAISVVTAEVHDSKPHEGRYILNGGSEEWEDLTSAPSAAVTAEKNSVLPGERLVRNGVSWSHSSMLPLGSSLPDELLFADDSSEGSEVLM
Assay Info: phosphorylation enrichment, bacterial display (enrichment ratio); higher = better substrate or ligand; peptides without Tyr show the background
# phosphorylation enrichment annotations

Input Sequence | phosphorylation enrichment
AEARMYGVLPW [PLP1_Y207_D203E] | 1.54
EASEQYLTKAS [NRCAM_Y739] | 0.485
RQEEEYKRLSE [SFSWAP_Y133] | 0.804
FSDPSYVKQME [CDC5L_Y464_YF] | 0.407
ATHSGYRLNDF [CLDN14_Y233_YF] | 0.42
TNLVPYPCIHF [TUBA1A_Y262_R264C] | 0.578
VLAHKYHGGGG [HBB_Y146_A141V] | 0.352
TQPSPYAVFLF [RPGRIP1_Y823_R827L_YF] | 7.59
IKSSIYDNRNE [ARAP2_Y380_K384N] | 0.405
SECCKYKIDNP [OSMR_Y689] | 0.419
DVCKNYAEAKD [ALB_Y343] | 0.448
EFLRNYFTDKA [DSG2_Y775] | 0.567
QGIIIYKAAYF [SLC25A4_Y187_R188K] | 1.04
LKGQVYILGWE [ASS1_Y359_R363W] | 0.428

###

Tgt: Hck (UniProt P08631)
Sequence (P08631 whole entry, looked up): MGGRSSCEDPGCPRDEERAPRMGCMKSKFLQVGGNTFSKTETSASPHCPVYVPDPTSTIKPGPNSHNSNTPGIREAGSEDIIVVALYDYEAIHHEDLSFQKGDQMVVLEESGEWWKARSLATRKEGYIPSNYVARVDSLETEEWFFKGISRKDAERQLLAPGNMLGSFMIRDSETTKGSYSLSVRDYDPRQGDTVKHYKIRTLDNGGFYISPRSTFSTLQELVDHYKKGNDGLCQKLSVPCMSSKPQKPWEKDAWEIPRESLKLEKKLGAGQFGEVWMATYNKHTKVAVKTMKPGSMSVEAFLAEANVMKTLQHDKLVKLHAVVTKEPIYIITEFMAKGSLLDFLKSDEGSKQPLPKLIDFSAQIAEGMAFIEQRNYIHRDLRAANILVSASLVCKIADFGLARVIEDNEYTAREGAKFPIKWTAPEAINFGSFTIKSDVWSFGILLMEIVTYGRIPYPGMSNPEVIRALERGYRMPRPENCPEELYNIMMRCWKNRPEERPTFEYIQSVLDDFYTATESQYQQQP
Assay Info: phosphorylation enrichment, bacterial display (enrichment ratio); higher = better substrate or ligand; peptides without Tyr show the background
Where phosphorylation enrichment equals or exceeds 0.7, the correct label is yes; where it does not, the label is no.

Input Sequence | Group
DKANRYFSPNV [PTEN_Y336_F341V] | no
MNKNAYHNVTT [ST3GAL6_Y306_A311T] | no
EYQLPYYNTVP [BMPR1A_Y457_M460T] | yes
VNNLVYENING [FRS2_Y306_K303N] | yes
GCKNRYDEDKP [THAP1_Y14_K16E] | no
GEDEPYSEPFA [APBA1_Y183_YF] | no
ETPSEYLEIVR [TMEM130_Y412] | no
SSAKTYSRMRL [NBEAL2_Y1835_E1833K] | no
GYCSWYRGWAP [TIMP3_Y195] | yes
QITQVYGFYHE [PPP2CA_Y127_D131H] | yes
YQKDVYDIPPS [NEDD9_Y177] | yes
VPVPGYTKVPE [SPRR3_Y146_L149V] | no
TVLEPYADPFF [ZC3H18_Y367_YF] | no
